molecular target: β5i subunit of human iCP (Homo sapiens, UniProt P20618+P28062); assay: IC50 determination with fluorogenic substrate Ac-ANW-AMC; conditions: IC50 β5i, human iCP; mean of at least three experiments; NA: not active at 50 μM
pIC50: −log10 of the molar value.
Measured quantity: pIC50

(1) O=C(N[C@@H](Cc1ccccc1)C(=O)N[C@H](B(O)O)C1CC1)c1cnccn1
(2) O=C(N[C@@H](Cc1ccccc1)C(=O)N[C@H](B(O)O)c1ccc(Cl)cc1)c1cnccn1
(3) O=C(N[C@@H](Cc1ccccc1)C(=O)N[C@H](B(O)O)c1ccccc1)c1cnccn1
(4) O=C(N[C@@H](Cc1ccccc1)C(=O)N[C@H](B(O)O)c1ccc(-c2ccccc2)cc1)c1cnccn1
Inquiry: Task for the reader: rank each entry by its pIC50, from the minimum upward. I'd appreciate it if you listed the labels in the requested order.
Reply text: 3, 4, 1, 2
(3: 6.66, 4: 7.62, 1: 8.05, 2: 8.52)

---

experiment: Kinetic solubility; assay type: physicochemical; conditions: phosphate-buffered saline, 25 °C, pH 7.4, aqueous buffer, kinetic from dmso stock, kinetic solubility, 2% DMSO, two hours, theoretical concentration 400 μM (200 μM for 5l), read-out: PBS solubility, pH 7.4
Measured quantity: solubility at 2 h (µM)
All answers are understood in µM, so give the number only.

Notebook: CC(C)C[C@H](NC(=O)[C@H](Cc1ccccc1)NC(=O)c1cnccn1)B(O)O [bortezomib, reference compound] , solubility at 2 h read as 399

---

molecular target: β5i subunit of human iCP (Homo sapiens, UniProt P20618+P28062); assay: IC50 determination with fluorogenic substrate Ac-ANW-AMC; conditions: IC50 β5i, human iCP; mean of at least three experiments; NA: not active at 50 μM
Measured quantity: IC50 (nM)

(A) O=C(N[C@@H](Cc1ccccc1)C(=O)N[C@H](B(O)O)c1ccc(F)cc1)c1cnccn1
(B) COc1ccc([C@H](NC(=O)[C@H](Cc2ccccc2)NC(=O)c2cnccn2)B(O)O)cc1
(C) CCOC(=O)c1cccc([C@H](NC(=O)[C@H](Cc2ccccc2)NC(=O)c2cnccn2)B(O)O)c1
(D) O=C(N[C@@H](Cc1ccccc1)C(=O)N[C@H](B(O)O)C1CCCC1)c1cnccn1
Inquiry: Task for the reader: rank each entry by its IC50, from the minimum upward. I'd appreciate it if you listed the labels in the requested order.
Reply text: B, A, D, C

(A) O=C(N[C@@H](Cc1ccccc1)C(=O)N[C@H](B(O)O)c1ccc2c(c1)OCO2)c1cnccn1
(B) Cc1ccc([C@H](NC(=O)[C@H](Cc2ccccc2)NC(=O)c2cnccn2)B(O)O)cc1
Inquiry: Form: Entry with minimum IC50 (choose one): A / B Respond with the label that goes with your answer.
Reply text: A
